- Test system: P.aeruginosa (IFO 3445)
- Experiment: Antibacterial activities: minimum inhibitory concentration (standard method of Japan Society of Chemotherapy)
- Assay type: cell-based
- Condition Notes: Pseudomonas aeruginosa, IFO3445
Attribute: MIC
Report as: number unit

// known answers, use as guide
[
  {
    "Compound": "Nc1c(F)c(N2CC[C@H](N)C2)cc2c1c(=O)c(C(=O)O)cn2-c1ccon1",
    "Measured": "0.1 µg/mL"
  },
  {
    "Compound": "C[C@H]1CN(c2cc3c(cc2F)c(=O)c(C(=O)O)cn3-c2ccon2)C[C@H]1N",
    "Measured": "0.2 µg/mL"
  },
  {
    "Compound": "C[C@H]1CN(c2cc3c(c(N)c2F)c(=O)c(C(=O)O)cn3-c2ccon2)C[C@H]1N",
    "Measured": "0.2 µg/mL"
  }
]

Please respond with reported MIC (system P.aeruginosa (IFO 3445)) for Cl.N[C@H]1CCN(c2cc3c(cc2F)c(=O)c(C(=O)O)cn3-c2ccon2)C1 .
0.1 µg/mL

Please respond with reported MIC (system P.aeruginosa (IFO 3445)) for CC1COc2c(N3CCN(C)CC3)c(F)cc3c(=O)c(C(=O)O)cn1c23 (stereo not drawn) [Ofloxacin, reference compound] .
1.56 µg/mL

Please respond with reported MIC (system P.aeruginosa (IFO 3445)) for N[C@H]1CCN(c2cc3c(c(Cl)c2F)c(=O)c(C(=O)O)cn3-c2ccon2)C1 .
0.2 µg/mL
